Tested on: SARS-CoV-2 B.1.1.7 (UK or Alpha variant)
Test Details: microbe, parasite or virus in culture
Type: cell-based
Test Settings: Severe acute respiratory syndrome coronavirus 2, Vero C1008; VeroE6 cells in presence of P-gp inhibitor
pEC50: −log10 of the molar value.

[
  {
    "Compound": "c1ccc(CCN2CCC(Oc3ccccc3-c3nc(-c4ccncc4)no3)C2)cc1 (stereo not shown)",
    "pEC50": 5.52
  }
]
